The binders listed here are annotated with their IC90 Neutralizing Assay.
assay system: Spike protein of authentic SARS-CoV-2 (Munich isolate 984) (SARS-CoV-2, UniProt P0DTC2 14-1273)
experimental protocol: cell-based or functional assay
Set-up: unit not given beside the values

Worked cases, IC90 Neutralizing Assay given:
- binder: "HL CV07-270 (antibody, V domains shown) VH: QVQLVESGGGLVKPGGSLRLSCAASGFTFSDYYMTWIRQAPGKGLEWVSYISSSGSTIYYADSVKGRFTISRDNAKNSLYLQMNSLRAEDTAVYYCARARGSSGWYRIGTRWGNWFDPWGQGTLVTVSS VL: QSALTQPASVSGSPGQSITISCTGTSSDVGGYNYVSWYQQHPGKAPKLMIYEVSNRPSGVSNRFSGSKSGNTASLTISGLQAEDEADYYCSSYTSSSNVVFGGGTMLTVLG"
  readout kind: "IC90 Neutralizing Assay"
  endpoint result: "~500"
- binder: "HL CV07-250 (antibody, V domains shown) VH: QVQLVQSEAEVKEPGASVEVSCKASGYNFTNFAISWVRQAPGQGLEWMGWISGYNGDTNSAQKFLGRVTMTTDTSTTTAYMELRSLRSDDTAVYYCAGSDNYGFPYNGMDVWGQGTTVTVSS VL: QSALTQPPSASGSPGQSVTISCTGTSSDLGAYHFVTWYQHYPGKAPKVMIYGVRKRPSGVPDRFSGSKSGNTASLTVSGLQDEDEADYYCSSYAGNNDFVFGGGTKLTVLS"
  readout kind: "IC90 Neutralizing Assay"
  endpoint result: "> 500"

Next binder, IC90 Neutralizing Assay to be filled in.
Exercise: Quick one: IC90 Neutralizing Assay of HL CV07-262 (antibody, V domains shown) VH: QVQLVQSGAEVKKPGASVKVSCKASGYTFTGYYMHWVRQAPGQGLEWMGWINPNSGGTNYAQTFQGRVTMTRDTSITTTYMELSRLRSDDTAVYYCARVGWYDFGTPGDYYYYYGMDVWGQGTTVTVSS VL: QSALTQPASVSGSPGQSITISCTGTSSDVGSYNLVSWYQQHPGKAPKLMIYEGSKRPSGVSNRFSGSKSGNTASLTISGLQAEDEADYFCCSYAGTSTFVFGTGTKVTVLG ?
Key: ~500
